# System: Syncephalastrum racemosum
# MEASUREMENT_DESCRIPTION: Inhibition of DHPS in Syncephalastrum racemosum assessed as antifungal activity by measuring inhibition zone at 5 mg/mL incubated for 48 hrs by disk diffusion method
The source made the active and inactive calls. The rule behind the calls is not given here.
MEASUREMENT_LABEL: inhibition zone (IZ)

QUERY_SMILES	MEASUREMENT_LABEL	RESULT
CN/C(S[C@@H]1O[C@H](COC(C)=O)[C@H](OC(C)=O)[C@H](OC(C)=O)[C@H]1OC(C)=O)=C(/C#N)C(=O)Nc1ccc(S(=O)(=O)Nc2onc(C)c2C)cc1	inhibition zone (IZ)	15.1 mm
C=CCN/C(S[C@@H]1O[C@H](COC(C)=O)[C@H](OC(C)=O)[C@H](OC(C)=O)[C@H]1OC(C)=O)=C(/C#N)C(=O)Nc1ccc(S(=O)(=O)Nc2onc(C)c2C)cc1	inhibition zone (IZ)	17.2 mm
C[C@@H]1[C@H](O)[C@@H](C)/C=C/C=C/C=C/C=C/C=C/C=C/C=C/[C@H](O[C@@H]2O[C@H](C)[C@@H](O)[C@H](N)[C@@H]2O)C[C@@H]2O[C@](O)(C[C@@H](O)C[C@@H](O)[C@H](O)CC[C@@H](O)C[C@@H](O)CC(=O)O[C@H]1C)C[C@H](O)[C@H]2C(=O)O	inhibition zone (IZ)	19.7 mm
CCN/C(S[C@@H]1O[C@H](COC(C)=O)[C@H](OC(C)=O)[C@H](OC(C)=O)[C@H]1OC(C)=O)=C(/C#N)C(=O)Nc1ccc(S(=O)(=O)Nc2onc(C)c2C)cc1	inhibition zone (IZ)	15.9 mm
CC(=O)OC[C@H]1O[C@@H](S/C(Nc2ccccc2)=C(\C#N)C(=O)Nc2ccc(S(=O)(=O)Nc3onc(C)c3C)cc2)[C@H](OC(C)=O)[C@@H](OC(C)=O)[C@H]1OC(C)=O	inhibition zone (IZ)	inactive

Q: Would you mind telling me what inhibition zone (IZ) value was observed for CN/C(S[C@@H]1O[C@H](COC(C)=O)[C@@H](OC(C)=O)[C@H](OC(C)=O)[C@H]1OC(C)=O)=C(/C#N)C(=O)Nc1ccc(S(=O)(=O)Nc2onc(C)c2C)cc1 ?
Ans: 19.9 mm

Q: Now this one: CN/C(S)=C(/C#N)C(=O)Nc1ccc(S(=O)(=O)Nc2onc(C)c2C)cc1
Ans: 17.2 mm

Q: # repeat for Cc1noc(NS(=O)(=O)c2ccc(NC(=O)/C(C#N)=C(/S)NC34CC5CC(CC(C5)C3)C4)cc2)c1C
Ans: 13.6 mm

Q: Further, for C=CCN/C(SC)=C(/C#N)C(=O)Nc1ccc(S(=O)(=O)Nc2onc(C)c2C)cc1 ?
Ans: 15.7 mm

Q: Try the compound CCS/C(NC)=C(\C#N)C(=O)Nc1ccc(S(=O)(=O)Nc2onc(C)c2C)cc1
Ans: 19.9 mm

Q: Subsequent entry: CS/C(Nc1ccccc1)=C(\C#N)C(=O)Nc1ccc(S(=O)(=O)Nc2onc(C)c2C)cc1
Ans: inactive

Q: Same read-out for CCN/C(S[C@@H]1O[C@H](COC(C)=O)[C@@H](OC(C)=O)[C@H](OC(C)=O)[C@H]1OC(C)=O)=C(/C#N)C(=O)Nc1ccc(S(=O)(=O)Nc2onc(C)c2C)cc1 ?
Ans: 21.3 mm

---

Would you kindly list log10 MIC for each of these compounds?
# Test system: Aspergillus fumigatus
# MEASUREMENT_DESCRIPTION: Inhibition of DHPS in Aspergillus fumigatus assessed as antifungal activity by measuring inhibition of fungal growth incubated for 48 hrs by microbroth dilution method
Remember, log10 of MIC, in µg/mL.

Q: For the compound Cc1noc(NS(=O)(=O)c2ccc(N)cc2)c1C , what log10 MIC is on record?
Ans: 1.80

Q: Moving on to CN/C(S)=C(/C#N)C(=O)Nc1ccc(S(=O)(=O)Nc2onc(C)c2C)cc1
Ans: 0.59

Q: Same question for CCN/C(S[C@@H]1O[C@H](COC(C)=O)[C@H](OC(C)=O)[C@H](OC(C)=O)[C@H]1OC(C)=O)=C(/C#N)C(=O)Nc1ccc(S(=O)(=O)Nc2onc(C)c2C)cc1 please.
Ans: 1.19

Q: # iterate: C[C@@H]1[C@H](O)[C@@H](C)/C=C/C=C/C=C/C=C/C=C/C=C/C=C/[C@H](O[C@@H]2O[C@H](C)[C@@H](O)[C@H](N)[C@@H]2O)C[C@@H]2O[C@](O)(C[C@@H](O)C[C@@H](O)[C@H](O)CC[C@@H](O)C[C@@H](O)CC(=O)O[C@H]1C)C[C@H](O)[C@H]2C(=O)O
Ans: -0.92

Q: Same thing, different compound: CN/C(S[C@@H]1O[C@H](COC(C)=O)[C@@H](OC(C)=O)[C@H](OC(C)=O)[C@H]1OC(C)=O)=C(/C#N)C(=O)Nc1ccc(S(=O)(=O)Nc2onc(C)c2C)cc1
Ans: 0.59

Q: Then C=CCN/C(S[C@@H]1O[C@H](COC(C)=O)[C@H](OC(C)=O)[C@H](OC(C)=O)[C@H]1OC(C)=O)=C(/C#N)C(=O)Nc1ccc(S(=O)(=O)Nc2onc(C)c2C)cc1 ?
Ans: 0.89

Q: Would you mind doing C=CCN/C(S[C@@H]1O[C@H](COC(C)=O)[C@@H](OC(C)=O)[C@H](OC(C)=O)[C@H]1OC(C)=O)=C(/C#N)C(=O)Nc1ccc(S(=O)(=O)Nc2onc(C)c2C)cc1 as well?
Ans: -0.01

Q: Subsequent entry: CCS/C(NC)=C(\C#N)C(=O)Nc1ccc(S(=O)(=O)Nc2onc(C)c2C)cc1
Ans: 1.19

---

# Tested on: Escherichia coli
# MEASUREMENT_DESCRIPTION: Inhibition of DHPS in Escherichia coli assessed as antibacterial activity by measuring inhibition zone at 5 mg/mL incubated for 24 hrs by disk diffusion method
Activity calls are given as the source filed them. The calls are words filed in the database; no cut-off is given here.
MEASUREMENT_LABEL: inhibition zone (IZ)

Worked set:
> print(dat)
                               query.smiles       target.desc     measurement.label    result
1  C=CCN/C(S[C@@H]1O[C@H](COC(C)=O)[C@H](OC(C)=O)[C@H](OC(C)=O)[C@H]1OC(C)=O)=C(/C#N)C(=O)Nc1ccc(S(=O)(=O)Nc2onc(C)c2C)cc1  Escherichia coli  inhibition zone (IZ)   18.3 mm
2  CCN/C(S[C@@H]1O[C@H](COC(C)=O)[C@H](OC(C)=O)[C@H](OC(C)=O)[C@H]1OC(C)=O)=C(/C#N)C(=O)Nc1ccc(S(=O)(=O)Nc2onc(C)c2C)cc1  Escherichia coli  inhibition zone (IZ)   17.1 mm
3  C=CCN/C(SC)=C(/C#N)C(=O)Nc1ccc(S(=O)(=O)Nc2onc(C)c2C)cc1  Escherichia coli  inhibition zone (IZ)  inactive
4  CS/C(Nc1ccccc1)=C(\C#N)C(=O)Nc1ccc(S(=O)(=O)Nc2onc(C)c2C)cc1  Escherichia coli  inhibition zone (IZ)  inactive
5  CN/C(S[C@@H]1O[C@H](COC(C)=O)[C@@H](OC(C)=O)[C@H](OC(C)=O)[C@H]1OC(C)=O)=C(/C#N)C(=O)Nc1ccc(S(=O)(=O)Nc2onc(C)c2C)cc1  Escherichia coli  inhibition zone (IZ)   20.2 mm

Q: Fill in the blank: the reported inhibition zone (IZ) of Cc1noc(NS(=O)(=O)c2ccc(NC(=O)c3c(N)n[nH]c3Nc3ccccc3)cc2)c1C is ____.
Ans: inactive

Q: Likewise for CCN/C(S[C@@H]1O[C@H](COC(C)=O)[C@@H](OC(C)=O)[C@H](OC(C)=O)[C@H]1OC(C)=O)=C(/C#N)C(=O)Nc1ccc(S(=O)(=O)Nc2onc(C)c2C)cc1 ?
Ans: 21.3 mm

---

# Tested on: Bacillus subtilis
# MEASUREMENT_DESCRIPTION: Inhibition of DHPS in Bacillus subtilis assessed as antibacterial activity by measuring inhibition of bacterial growth incubated for 24 hrs by microbroth dilution method
MEASUREMENT_LABEL: MIC (µg/mL)
Answer in µg/mL, number only, no unit symbol.

Q: Field request: MIC | item: CC(=O)OC[C@H]1O[C@@H](S/C(Nc2ccccc2)=C(\C#N)C(=O)Nc2ccc(S(=O)(=O)Nc3onc(C)c3C)cc2)[C@H](OC(C)=O)[C@@H](OC(C)=O)[C@H]1OC(C)=O
Ans: 1.95

Q: Subsequent entry: CCN/C(S[C@@H]1O[C@H](COC(C)=O)[C@@H](OC(C)=O)[C@H](OC(C)=O)[C@H]1OC(C)=O)=C(/C#N)C(=O)Nc1ccc(S(=O)(=O)Nc2onc(C)c2C)cc1
Ans: 1.95

Q: Try this compound too: C=CCN/C(S[C@@H]1O[C@H](COC(C)=O)[C@@H](OC(C)=O)[C@H](OC(C)=O)[C@H]1OC(C)=O)=C(/C#N)C(=O)Nc1ccc(S(=O)(=O)Nc2onc(C)c2C)cc1
Ans: 0.98

Q: Please give the result for Cc1noc(NS(=O)(=O)c2ccc(N)cc2)c1C too.
Ans: 0.98

Q: Lookup C=CCN/C(S[C@@H]1O[C@H](COC(C)=O)[C@H](OC(C)=O)[C@H](OC(C)=O)[C@H]1OC(C)=O)=C(/C#N)C(=O)Nc1ccc(S(=O)(=O)Nc2onc(C)c2C)cc1
Ans: 0.98
